Experiment: Human microsomal stability assay
Type: in vitro ADME
Conditions: human liver microsomes 0.5 mg/mL, 1 μM test compound, 37° C., pH 7.4
attribute measured: Clearance of Human microsome (mL/min/kg)

molecule=C[C@@H]1CN(c2ccc(C#N)c3ncccc23)C[C@H](C)N1Cc1ccc(N2CC3CNCC(C2)O3)cn1 unit_descriptor=mL/min/kg value_observed=12.4
molecule="C[C@@H]1CN(c2ccc(C#N)c3ncccc23)C[C@H](C)N1Cc1ccc(N2CCNCC2CO)cc1 (stereo partly shown)" unit_descriptor=mL/min/kg value_observed=10.1
molecule="CC1CN(c2ccc(C#N)c3ncccc23)CCN1CC(=O)N1CCC(C2CCN(C)CC2)CC1 (stereo not shown)" unit_descriptor=mL/min/kg value_observed=6.7

[P] C[C@@H]1CN(c2ccc(C#N)c3ncccc23)C[C@@H](C)N1Cc1ccc(N2CCNCC2)cc1
[Q] C[C@@H]1CN(c2ccc(C#N)c3ncccc23)C[C@H](C)N1CC(=O)N1CCc2cc(N3CCNCC3)ccc2C1
In: Lower value of Clearance of Human microsome belongs to which: P or Q ? Answer format: the label of the selected item.
Out: P
(P: 8.0 mL/min/kg, Q: 12.9 mL/min/kg)

[I] CC1CN(c2ccc(C#N)c3ncccc23)CCN1CC(=O)Nc1ccc2c(c1)CCNC2 (stereo not shown)
[II] C[C@@H]1CN(c2ccc(C#N)c3ncccc23)C[C@H](C)N1Cc1ncc(N2CCN(C(=O)CN(C)C)CC2)cn1
In: Which of the two items, I and II , has the greater recorded Clearance of Human microsome? Answer format: the label of the selected item.
Out: II

---

Target: hERG (Homo sapiens)
Construct: expressed in transfected cells
Sequence (Q12809 whole entry): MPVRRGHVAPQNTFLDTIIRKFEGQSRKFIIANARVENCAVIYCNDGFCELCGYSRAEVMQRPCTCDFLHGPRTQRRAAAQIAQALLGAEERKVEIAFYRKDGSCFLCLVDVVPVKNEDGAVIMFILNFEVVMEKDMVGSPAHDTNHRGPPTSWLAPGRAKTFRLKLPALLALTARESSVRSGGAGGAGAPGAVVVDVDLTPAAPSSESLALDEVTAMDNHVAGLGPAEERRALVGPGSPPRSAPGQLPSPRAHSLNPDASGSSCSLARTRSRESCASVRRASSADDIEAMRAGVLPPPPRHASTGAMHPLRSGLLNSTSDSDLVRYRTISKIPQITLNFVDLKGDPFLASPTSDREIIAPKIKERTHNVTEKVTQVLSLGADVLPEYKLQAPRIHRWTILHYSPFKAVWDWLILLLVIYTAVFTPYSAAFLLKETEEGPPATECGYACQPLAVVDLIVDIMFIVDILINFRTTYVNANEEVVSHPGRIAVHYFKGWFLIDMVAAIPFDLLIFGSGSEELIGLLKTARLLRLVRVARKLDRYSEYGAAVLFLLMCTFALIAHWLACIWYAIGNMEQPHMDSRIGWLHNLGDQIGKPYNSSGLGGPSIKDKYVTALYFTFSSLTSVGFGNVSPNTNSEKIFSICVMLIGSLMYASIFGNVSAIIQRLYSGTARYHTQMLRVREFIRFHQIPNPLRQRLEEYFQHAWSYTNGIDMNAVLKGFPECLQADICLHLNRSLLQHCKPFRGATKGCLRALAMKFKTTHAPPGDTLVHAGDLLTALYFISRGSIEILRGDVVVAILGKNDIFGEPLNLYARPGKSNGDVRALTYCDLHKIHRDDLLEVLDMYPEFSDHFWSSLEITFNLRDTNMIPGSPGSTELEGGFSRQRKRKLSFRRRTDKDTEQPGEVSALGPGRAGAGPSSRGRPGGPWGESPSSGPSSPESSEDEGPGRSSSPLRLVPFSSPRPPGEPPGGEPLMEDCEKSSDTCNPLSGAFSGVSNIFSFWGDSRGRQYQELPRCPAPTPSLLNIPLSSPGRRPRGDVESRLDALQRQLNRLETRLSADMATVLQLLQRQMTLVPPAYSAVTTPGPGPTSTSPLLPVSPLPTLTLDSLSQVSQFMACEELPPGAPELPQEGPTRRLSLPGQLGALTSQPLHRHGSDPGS
Test: hERG channel inhibition assay (patch-clamp, CHO hERG cells)
Format: cell-based
Settings: safety ratio; >30 suggests sufficient window
attribute measured: hERG IC20/TLR9 IC50

Known hERG IC20/TLR9 IC50 results, listed for orientation:
compound=C[C@@H]1CN(c2ccc(C#N)c3ncccc23)C[C@H](C)N1Cc1ccc(N2CCNCC2)nc1 value_observed=79
compound=C[C@@H]1CN(c2ccc(C#N)c3ncccc23)C[C@H](C)N1Cc1ccc(N2CCN(C(=O)CN(C)C)CC2)cn1 value_observed=>104
compound="C[C@@H]1CN(c2ccc(C#N)c3ncccc23)C[C@H](C)N1Cc1ccc(N2CCN(C(=O)C3CCCN3)CC2)cn1 (stereo partly drawn)" value_observed=>242
compound=C[C@@H]1CN(c2ccc(C#N)c3ncccc23)C[C@H](C)N1CC(=O)N1Cc2ccc(N3CCNCC3)cc2C1 value_observed=>134
compound=C[C@@H]1CN(c2ccc(C#N)c3ncccc23)C[C@H](C)N1Cc1ccc(N2CCNCC2)cn1 value_observed=>119

In: For C[C@@H]1CN(c2ccc(C#N)c3ncccc23)C[C@H](C)N1Cc1ncc(N2CCNCC2)cn1 , what is its reported hERG IC20/TLR9 IC50?
Out: 45

---

Test: Human microsomal stability assay
Type: in vitro ADME
Conditions: human liver microsomes 0.5 mg/mL, 1 μM test compound, 37° C., pH 7.4
attribute measured: Clearance of Human microsome (mL/min/kg)

compound=C[C@@H]1CN(c2ccc(C#N)c3ncccc23)C[C@H](C)N1Cc1ncc(N2CCNCC2)cn1 attribute_measured="Clearance of Human microsome" value_observed=10.4
compound=C[C@@H]1CN(c2ccc(C#N)c3ncccc23)C[C@H](C)N1Cc1ccc(N2CCNCC2)nc1 attribute_measured="Clearance of Human microsome" value_observed=11.6
compound=C[C@@H]1CN(c2ccc(C#N)c3ncccc23)C[C@H](C)N1Cc1ccc(N2CCNCC2)cc1 attribute_measured="Clearance of Human microsome" value_observed=11.2
compound=C[C@@H]1CN(c2ccc(C#N)c3ncccc23)C[C@H](C)N1CC(=O)N1Cc2ccc(N3CCNCC3)cc2C1 attribute_measured="Clearance of Human microsome" value_observed=9.4

[I] C[C@@H]1CN(c2ccc(C#N)c3ncccc23)C[C@H](C)N1Cc1ccc(N[C@@H]2CNC[C@@H]2F)cn1
[II] CC1CN(c2ccc(C#N)c3ncccc23)CCN1CC(=O)Nc1ccc(N2CCNCC2)cc1 (stereo not drawn)
In: Lower value of Clearance of Human microsome belongs to which: I or II ? Answer format: the label of the selected item.
Out: II

These data points were gathered from patent US11952363B2.
